Test: NCI Yeast Anticancer Drug Screen. Data for the cln2 rad14 strain (AID 165);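 further: 0% = growth equal to vehicle treated cultures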
Experimental context: S. cerevisiae cln2 rad14 strain, at 50.0 µM, active compounds read high
Compounds without any hit were thinned out: in the full panel of roughly 79,000, 15% have a hit.
Parameter: growth inhibition. Scope: all listed entries.

Molecule	Value units	growth inhibition
CCN(CC)CCOC(=O)Cc1cccc2c(=O)cc(-c3ccc(OC)cc3)oc12	%	8.9
CC(=O)NCC(N)=S	%	-1.55
Brc1ccc[n+](CCc2ccccc2)c1	%	7.75
CCC(C(N)=O)C(N)=O	%	15.8
CCCNC(=O)Nc1ccccc1OCC	%	-68
C=CCOc1ccc(C2CCCCC2)cc1	%	11.6
CC1CC/C(=N\O)CCCCC(=O)O1 (centres undefined)	%	-33.4
Cc1cc2c(cc1C)[n+](=O)c(C(=O)CC(=O)C(=O)Nc1ccccc1C)c(C)n2[O-]	%	30.4
c1ccc2c(c1)Oc1ccccc1S2	%	3.85
Oc1cccc2c1N1CCN2CC1	%	4.85
CC(C)CCC(=O)OCC(=O)c1ccc(-c2ccccc2)cc1	%	-1.45
Brc1ccc2nc(-c3ccccc3)c3ccccc3c2c1	%	-25.4
CCn1cc(C(=O)O)c(=O)c2ccc(-c3cn[nH]c3C)nc21	%	4.45
CC12CC(O)C(C=C1c1ccccc1)C2(C)C (centres undefined)	%	-14
O=c1c2cc(Br)ccc2n(C2OC(CO)C(O)C(O)C2O)c(=S)n1-c1ccccc1 (centres undefined)	%	34.5
c1ccc(-c2c(-c3ccc4c(c3)OCO4)c(-c3ccc4c(c3)OCO4)c(-c3ccccc3)c3ccccc23)cc1	%	28.2
OC1=CC(C2CCCCC2)CC(O)=C1 (centres undefined)	%	-7.9
CC(C)NC(=O)CCSCCC(=O)NC(C)C	%	-6.8
Nc1nc(-c2ccc([N+](=O)[O-])cc2)cc(-c2cc(-c3ccc([N+](=O)[O-])cc3)nc(N)n2)n1	%	14.7
CC(C)(C)OC(=O)CNC(=O)C(CSC(c1ccccc1)c1ccccc1)NC(=O)CNC(=O)C(CCCCNC(=O)OCc1ccccc1)NC(=O)CNC(=O)C(CSC(c1ccccc1)(c1ccccc1)c1ccccc1)NC(=O)OCc1ccccc1 (centres undefined)	%	3.8
CCCCOC(=O)c1ccc(NC(=O)CCCN(CC)CC)cc1	%	13.2
CCOC(=O)c1ccccc1[N+](=O)[O-]	%	-11.7
S=C1Nc2ccccc2C2CC=NN12 (centres undefined)	%	-30
COC(=O)C1CC2c3[nH]c4ccccc4c3CCN2C1 (centres undefined)	%	-11.4

Cited source: PubChem BioAssay (NCI)
